test system: sonic hedgehog pathway, S12 mouse embryonic mesenchymal cells; experiment: Hedgehog pathway Gli-luciferase reporter assay in S12 cells; type: cell-based; conditions: S12 mouse embryonic mesenchymal cells, Table 3, read-out: S12 Avg. EC50
property_label: EC50

sonic hedgehog pathway, S12 mouse embryonic mesenchymal cells EC50 of COc1ccc(-c2cc[n+](C)cc2)cc1CN(C(=O)c1sc2c(F)ccc(F)c2c1Cl)[C@H]1CC[C@@H](N)CC1 is 1000 to 2500 nM

* * *

test system: sonic hedgehog pathway, S12 mouse embryonic mesenchymal cells; assay: Hedgehog pathway Gli-luciferase reporter assay in S12 cells; format: cell-based; conditions: S12 mouse embryonic mesenchymal cells, Table 1, read-out: S12 Avg. EC50
pEC50: −log10 of the molar value. Where a name gives a salt, the structure may show the parent alone.
Recorded pEC50 values for a group of compounds are listed next.

[[record]]
compound = "CN[C@H]1CC[C@@H](N(Cc2cc(-c3ccc(C(C)=O)cc3)ccc2OC)C(=O)c2sc3ccccc3c2Cl)CC1 [Compound 303, hydrochloride]"
result = "> 7.30"


# ---- query compound ----
Entry CN[C@H]1CC[C@@H](N(Cc2cc(-c3cccnc3)ccc2OC)C(=O)c2sc3cccc(F)c3c2Cl)CC1 [360 (R16), dihydrochloride] — recorded pEC50 = > 7.30
